# Experimental System: Epidermal growth factor receptor (Homo sapiens, UniProt P00533)
# Sequence (P00533 whole entry, the tested form may be a part): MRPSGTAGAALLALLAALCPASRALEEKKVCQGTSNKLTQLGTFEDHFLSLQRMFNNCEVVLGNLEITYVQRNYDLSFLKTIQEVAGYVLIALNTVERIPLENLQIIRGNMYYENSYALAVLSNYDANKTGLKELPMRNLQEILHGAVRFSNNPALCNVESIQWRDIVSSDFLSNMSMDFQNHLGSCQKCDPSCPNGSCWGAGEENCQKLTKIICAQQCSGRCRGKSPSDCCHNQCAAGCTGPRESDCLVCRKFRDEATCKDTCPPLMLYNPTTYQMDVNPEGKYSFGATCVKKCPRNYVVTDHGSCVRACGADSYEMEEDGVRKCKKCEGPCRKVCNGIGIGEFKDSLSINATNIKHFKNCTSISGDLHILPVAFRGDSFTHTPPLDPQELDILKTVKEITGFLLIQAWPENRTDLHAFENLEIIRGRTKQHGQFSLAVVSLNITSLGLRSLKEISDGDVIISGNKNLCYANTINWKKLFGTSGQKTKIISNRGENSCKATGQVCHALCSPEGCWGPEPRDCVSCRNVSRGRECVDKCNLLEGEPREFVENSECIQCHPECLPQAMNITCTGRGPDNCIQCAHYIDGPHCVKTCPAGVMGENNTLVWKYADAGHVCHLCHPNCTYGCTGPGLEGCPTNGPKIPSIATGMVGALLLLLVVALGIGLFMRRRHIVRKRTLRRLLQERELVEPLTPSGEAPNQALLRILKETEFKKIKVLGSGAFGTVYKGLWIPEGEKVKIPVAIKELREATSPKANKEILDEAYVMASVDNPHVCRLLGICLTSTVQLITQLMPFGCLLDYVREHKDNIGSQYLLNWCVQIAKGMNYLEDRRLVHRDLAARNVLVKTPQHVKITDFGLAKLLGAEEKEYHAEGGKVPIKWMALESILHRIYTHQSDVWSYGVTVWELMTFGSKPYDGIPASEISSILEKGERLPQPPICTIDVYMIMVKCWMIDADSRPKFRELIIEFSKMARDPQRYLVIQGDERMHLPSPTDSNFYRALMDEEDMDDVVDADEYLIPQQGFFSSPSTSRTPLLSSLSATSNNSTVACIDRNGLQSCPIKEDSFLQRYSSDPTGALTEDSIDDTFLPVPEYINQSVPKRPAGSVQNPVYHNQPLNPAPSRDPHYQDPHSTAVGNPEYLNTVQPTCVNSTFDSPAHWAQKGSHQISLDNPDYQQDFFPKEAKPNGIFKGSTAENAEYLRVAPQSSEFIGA
# Assay Procedure: Inhibition of His6-tagged EGFR cytoplasmic domain (645 to 1186 residues) (unknown origin) expressed in baculovirus infected Sf9 insect cells after 10 mins by DELFIA/time-resolved fluorometry
Catalogue of IC50 readings, one per entry.
Assay Metric: IC50 (nM)

Structure String: COc1cc(/C=C/C(=O)c2ccc(NC(=O)c3cc4cc5ccccc5nc4s3)cc2)cc(OC)c1OC
Observed Result: 1200

Structure String: COc1ccc2nc3sc(C(=O)Nc4ccc(C(=O)/C=C/c5ccc(OC)c(OC)c5)cc4)cc3cc2c1
Observed Result: 700

Structure String: COc1ccc2nc3sc(C(=O)Nc4ccc(C(=O)/C=C/c5cc(OC)c(OC)c(OC)c5)cc4)cc3cc2c1
Observed Result: 1400
